Conditions: in transcutol, 318.2 K
METRIC: solubility (mole fraction)

**Query** Using the record for CCN(CC)CCNC(=O)c1c(C)[nH]c(/C=C2\C(=O)Nc3ccc(F)cc32)c1C.O=C(O)C[C@H](O)C(=O)O , report its solubility (mole fraction).
**Result** 0.0187

====

Details: in isopropanol, 313.2 K
METRIC: solubility (mole fraction)
Answer field: number only, no words.

**Query** Using the record for CCN(CC)CCNC(=O)c1c(C)[nH]c(/C=C2\C(=O)Nc3ccc(F)cc32)c1C.O=C(O)C[C@H](O)C(=O)O , report its solubility (mole fraction).
**Result** 0.0129
